// reported inhibition at 2 µM per item
Biological target: full-length human RORγt (GAL4-DBD-RORγt fusion) in HEK293T cells (Homo sapiens (Human))
Assay: RORγt (full-length human) reporter assay, conditions A or B
Assay type: cell-based
Settings: HEK-293T; 2 μM compound concentration; read-out: RORγt (FL) Reporter Assay A or B, % inhibition
Write the number in % without appending the unit.

Here's what some known entries look like.
{"columns": ["molecule", "unit info", "inhibition at 2 µM"],
 "data": [
  ["CCn1nc(C(=O)NC[C@H]2CC[C@H](S(C)(=O)=O)CC2)c(Cl)c1-c1cnc(C[C@H](C)C(F)(F)F)cc1OC (single isomer, unassigned) [Example 62]", "%", 89],
  ["CCn1nc(C(=O)NC[C@H]2CC[C@H](S(C)(=O)=O)CC2)c(Cl)c1-c1cnc(O[C@@H](C)C(F)(F)F)cc1OC [Example 64]", "%", 39],
  ["CCn1nc(C(=O)NC[C@H]2CC[C@H](S(C)(=O)=O)CC2)c(Cl)c1-c1cnc(O[C@H](C)C(F)(F)F)cc1OC [Example 65]", "%", 75]
]}

Note to self: inhibition at 2 µM recorded for CCn1nc(C(=O)NC[C@H]2CC[C@H](S(C)(=O)=O)CC2)c(Cl)c1-c1cnc(C[C@@H](C)C(F)(F)F)cc1OC (single isomer, unassigned) [Example 61] was 87

* * *

Biological target: full-length human RORγt (GAL4-DBD-RORγt fusion) in HEK293T cells (Homo sapiens (Human))
Assay: RORγt (full-length human) reporter assay, conditions A or B
Format: cell-based
Details: HEK-293T; 3 μM compound concentration (footnote *); read-out: RORγt (FL) Reporter Assay A or B, % inhibition
metric name: inhibition at 3 µM
Express your answer as a number followed by its unit.

Here's what some known entries look like.
{"columns": ["molecule", "result value"],
 "data": [
  ["CCn1nc(C(=O)NC[C@]2(O)CC[C@@H](S(C)(=O)=O)CC2)c(Cl)c1-c1cnc(C[C@H](C)C(F)(F)F)cc1OC(F)F (single isomer, unassigned)", "71%"],
  ["CCn1nc(C(=O)NC[C@]2(O)CC[C@@H](S(C)(=O)=O)CC2)c(Cl)c1-c1cnc(CC(C)(C)C(F)(F)F)cc1OC(F)F", "98%"]
]}

For the next question, use this molecule.
Note to self: inhibition at 3 µM recorded for CCn1nc(C(=O)NC[C@]2(O)CC[C@@H](S(C)(=O)=O)C[C@H]2O)c(Cl)c1-c1ccc(CC(C)(C)C(F)(F)F)nc1OC(F)F (stereo in doubt) was 95%

* * *

Molecular target: full-length human RORγt (GAL4-DBD-RORγt fusion) in HEK293T cells (Homo sapiens (Human), UniProt P51449)
Sequence (P51449 other isoform, or with tags, fused parts or gaps): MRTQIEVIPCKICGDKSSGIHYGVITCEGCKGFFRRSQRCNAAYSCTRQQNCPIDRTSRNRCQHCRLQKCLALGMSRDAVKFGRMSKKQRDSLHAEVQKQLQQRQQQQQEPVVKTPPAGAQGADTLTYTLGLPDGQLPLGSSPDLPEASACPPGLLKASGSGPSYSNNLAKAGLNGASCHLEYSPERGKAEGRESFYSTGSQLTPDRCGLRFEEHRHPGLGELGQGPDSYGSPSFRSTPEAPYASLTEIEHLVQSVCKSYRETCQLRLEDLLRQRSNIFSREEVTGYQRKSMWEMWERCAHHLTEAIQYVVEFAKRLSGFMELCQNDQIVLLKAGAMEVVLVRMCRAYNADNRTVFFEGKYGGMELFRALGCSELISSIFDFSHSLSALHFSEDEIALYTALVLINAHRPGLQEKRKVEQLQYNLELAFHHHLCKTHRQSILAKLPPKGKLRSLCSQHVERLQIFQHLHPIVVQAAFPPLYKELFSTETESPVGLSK
Assay: RORγt (full-length human) reporter assay, conditions A or B
Format: cell-based
Conditions: HEK-293T; 3 μM compound concentration (footnote *); read-out: RORγt (FL) Reporter Assay A or B, % inhibition
// reported inhibition at 3 µM per item
Write the number in % without appending the unit.

{"columns": ["molecule", "metric name", "result value"],
 "data": [
  ["CCn1nc(C(=O)NC[C@]2(O)CC[C@@H](S(C)(=O)=O)CC2)c(Cl)c1-c1ncc(CC(C)(C)C(F)(F)F)cc1OC(F)F", "inhibition at 3 µM", 83]
]}

Note to self: inhibition at 3 µM recorded for CCn1nc(C(=O)NC[C@H]2CC[C@H](S(C)(=O)=O)CC2)c(Cl)c1-c1cnc(CC(C)(C)C(F)(F)F)cc1C(C)C was 94

Note to self: inhibition at 3 µM recorded for CCn1nc(C(=O)NC[C@@]2(O)CC[C@H](S(C)(=O)=O)C[C@@H]2O)c(C)c1-c1ccc(CC(C)(C)C(F)(F)F)nc1OC(F)F (relative stereo) was 97

Note to self: inhibition at 3 µM recorded for CCc1cc(CCC(C)(C)C)ncc1-c1c(Cl)c(C(=O)NC[C@]2(O)CC[C@@H](S(C)(=O)=O)CC2)nn1CC was 82

Note to self: inhibition at 3 µM recorded for CCn1nc(C(=O)NC[C@]2(O)CC[C@@H](S(C)(=O)=O)CC2)c(Cl)c1-c1cnc(CC(C)(C)C(F)(F)F)cc1C(F)F was 20

Note to self: inhibition at 3 µM recorded for CCc1cc(CC(C)(C)C(F)(F)F)ncc1-c1c(Cl)c(C(=O)NC[C@]2(O)CC[C@@H](S(C)(=O)=O)CC2)nn1CC was 78

Note to self: inhibition at 3 µM recorded for CCn1nc(C(=O)NC[C@]2(O)CC[C@@H](S(C)(=O)=O)C[C@H]2O)c(C)c1-c1cnc(CC(C)(C)C(F)F)cc1OC(F)F (stereo in doubt) was 85

Note to self: inhibition at 3 µM recorded for CCn1nc(C(=O)NC[C@H]2CC[C@H](S(C)(=O)=O)CC2)c(Cl)c1-c1cnc(C[C@H](C)C(F)(F)F)cc1OC(F)F (single isomer, unassigned) was 82
